Data origin, for the record: patent US20240010722A1

- assayed.target: T1, human MAdCAM (human, UniProt Q13477 19-317, limits assumed)
- T1 construct: also called huMAdCAM; human MAdCAM-1
- T1 sequence (looked up): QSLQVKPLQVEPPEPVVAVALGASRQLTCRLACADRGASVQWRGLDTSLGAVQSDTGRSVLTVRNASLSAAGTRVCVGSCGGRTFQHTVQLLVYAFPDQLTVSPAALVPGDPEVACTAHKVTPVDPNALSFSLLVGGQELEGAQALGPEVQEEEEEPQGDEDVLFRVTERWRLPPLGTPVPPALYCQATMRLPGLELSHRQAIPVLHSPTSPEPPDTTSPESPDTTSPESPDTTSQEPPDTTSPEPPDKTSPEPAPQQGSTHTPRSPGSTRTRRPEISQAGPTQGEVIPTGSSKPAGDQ
- assay.overview: BLI (Octet), binder on anti-human Fc tips

- binder: "MIAB145 (antibody, V domains shown, tested with human Fc; also called MIAB145-001) VH: EVQLLESGGGLVQPGGSLRLSCAASGFTFSDFWMHWVRQAPGKGLEWISYISGDSGYTNYADSVKGRFTISRDNSKNTLYLQMNSLRAEDTAVYYCARDRPYYYYMDVWGKGTTVTVSS VL: DIQMTQSPSSLSASVGDRVTITCRASQSISRSLAWYQQKPGKAPKLLIYAASSLQSGVPSRFSGSGSGTDFTLTISSLQPEDFATYYCQQYKSYPVTFGQGTKVEIK"
  koff [s⁻¹]: 0.00897
- binder: "MIAB169 (antibody, V domains shown, tested with human Fc; also called MIAB169-CHO; MIAB169-HEK) VH: EVQLLESGGGLVQPGGSLRLSCAASGFTFSDFWMHWVRQAPGKGLEWISYISGDSGYTNYADSVKGRFTISRDNSKNTLYLQMNSLRAEDTAVYYCARDRPYYYIMDVWGKGTTVTVSS VL: DIQMTQSPSSLSASVGDRVTITCRASQSVSRSLAWYQQKPGKAPKLLIYAASSLQSGVPSRFSGSGSGTDFTLTISSLQPEDFATYYCQQYKSYPVTFGQGTKVEIK"
  koff [s⁻¹]: 0.0738
- binder: "MIAB182 (antibody, V domains shown, tested with human Fc; also called MIAB182-001) VH: EVQLLESGGGLVQPGGSLRLSCAASGFTFSSYWMHWVRQAPGKGLEWVSAISGSGGSTYYADSVKGRFTISRDNSKNTLYLQMNSLRAEDTAVYYCARDRPYYYYMDVWGKGTTVTVSS VL: DIQMTQSPSSLSASVGDRVTITCRASQSISRSLAWYQQKPGKAPKLLIYAASSLQSGVPSRFSGSGSGTDFTLTISSLQPEDFATYYCQQYKSYPVTFGQGTKVEIK"
  koff [s⁻¹]: 0.0267
